# assayed_target: HIV protease (Human immunodeficiency virus type 1 group M subtype B)
# Construct: HIV protease is diluted in the assay buffer to a final enzyme concentration of 12.3 nanomolar, based on a molecular weight of 10,780
# test_protocol: biochemical
# Type: biochemical
# stated_conditions: Table 19B; calculated IC50; enzyme 12.3 nanomolar, substrate 80 μM, pH 6.4
Please provide measured pIC50 for the entries that follow.
Answers are plain numbers, as −log10 of the molar value.

[
  {
    "compound": "CNCC(=O)NC(C(=O)N[C@@H](Cc1ccccc1)[C@H](O)CN(CCC(C)C)S(=O)(=O)c1ccccc1)C(C)(C)C (stereo partly shown) [Table 3 Entry 6]",
    "assayed_target": "HIV protease (Human immunodeficiency virus type 1 group M subtype B)",
    "pIC50": 8.74
  },
  {
    "compound": "COc1ccc(S(=O)(=O)N(CC(C)C)C[C@@H](O)[C@H](Cc2ccccc2)NC(=O)C(NC(=O)CN(C)C)C(C)(C)C)cc1 (stereo partly shown) [Table 3 Entry 10]",
    "assayed_target": "HIV protease (Human immunodeficiency virus type 1 group M subtype B)",
    "pIC50": 8.60
  },
  {
    "compound": "CC(C)CCN(C[C@@H](O)[C@H](Cc1ccccc1)NC(=O)C(NC(=O)OCc1ccccc1)C(C)(C)C)S(C)(=O)=O (stereo partly shown) [Table 3 Entry 1]",
    "assayed_target": "HIV protease (Human immunodeficiency virus type 1 group M subtype B)",
    "pIC50": 7.09
  }
]

Now for a further compound.
Input CC(C)CCN(C[C@@H](O)[C@H](Cc1ccccc1)NC(=O)C(NC(=O)CN(C)C)C(C)(C)C)S(=O)(=O)c1ccccc1 (stereo partly shown) [Table 3 Entry 8] , output reported pIC50.
8.52
